Can you tell me pKi for the items I'm about to list?
pKi field: float, defined as -log10 of concentration (mol/L).

Q) pKi of CCN(Cc1ccncc1)C(=O)Cc1c(-c2ccc(Cl)c(Cl)c2)nc2cc(C)ccn12 on Translocator protein (Rattus norvegicus, UniProt P16257)?
A) 7.96

Q) Param readout = pKi; param system = Translocator protein (Rattus norvegicus, UniProt P16257); param query = CCN(Cc1ccccc1)C(=O)Cc1c(-c2ccc(Cl)cc2)nc2cc(C)ccn12 ; response: value
A) 8.14

Q) GET /values?readout=pKi&system=Translocator protein (Rattus norvegicus, UniProt P16257)&item= CCN(Cc1ccccn1)C(=O)Cc1c(-c2ccc(Cl)c(Cl)c2)nc2cc(C)ccn12
A) 8.03

Q) Identify the measured pKi of COCCN(Cc1ccccn1)C(=O)Cc1c(-c2ccc(Cl)c(Cl)c2)nc2cc(C)ccn12 for Translocator protein (Rattus norvegicus, UniProt P16257).
A) 8.18

Recorded values, source ChEMBL document CHEMBL3639097.
